- TGT: UniProt P33316
- Sequence (P33316 1-164 isoform P33316-2): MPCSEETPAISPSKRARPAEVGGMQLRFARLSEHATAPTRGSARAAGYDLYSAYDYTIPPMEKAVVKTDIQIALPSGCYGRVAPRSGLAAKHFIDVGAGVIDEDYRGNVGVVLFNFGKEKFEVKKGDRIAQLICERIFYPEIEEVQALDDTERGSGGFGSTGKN
Here the recorded Ki is given for each entry.
ENDPOINT: Ki

{"COMPOUND": "CCOC(=O)c1ccc(NC(=O)NCC(CCn2ccc(=O)[nH]c2=O)CNC(c2ccccc2)(c2ccccc2)c2ccccc2)cc1 (stereo not drawn)", "ENDPOINT": "Ki", "REPORTED_VALUE": "> 100 µM"}
{"COMPOUND": "CCOC(=O)CCCNC(=O)NCC(CCn1ccc(=O)[nH]c1=O)CNC(c1ccccc1)(c1ccccc1)c1ccccc1 (stereo not drawn)", "ENDPOINT": "Ki", "REPORTED_VALUE": "12.2 µM"}
{"COMPOUND": "O=C(Nc1ccc(C(=O)O)cc1)O[C@H]1C[C@H](n2ccc(=O)[nH]c2=O)O[C@@H]1CNC(c1ccccc1)(c1ccccc1)c1ccccc1", "ENDPOINT": "Ki", "REPORTED_VALUE": "> 100 µM"}
